# experimental-target: Cytochrome P450 2C9 (Homo sapiens, UniProt P11712)
Exercise: for every item that follows, state its recorded AC50.

O=C(CSc1nnc(-c2cccs2)n1-c1ccccc1)N1CCCC1 : 12.6 µM (inconclusive)
CN(C)c1ncc2nc(-c3ccccc3)c(=O)n(C[C@H]3CCCO3)c2n1 : 20 µM (inconclusive)
O=C(CC(=O)c1ccncc1)c1ccccc1 : 2 µM (inconclusive)

Lab note: each compound below needs its AC50 filled in.
1. COc1ccc(C(=O)/C=C2/c3ccccc3CC(C)(C)N2C)cc1
2. COc1cccc(Nc2ncc3ncc(=O)n(C4CC4)c3n2)c1
3. Cc1cccc(C)c1NC(=O)C(NC=O)c1ccccc1Cl (centres undefined)
4. N#C/C(=C\N1CCNC1=S)C(=O)c1ccc2ccccc2c1
5. O=C(NCCCCc1ccccc1)C1CC(c2ccccc2[N+](=O)[O-])=NO1 (centres undefined)
6. COc1cc(C)ccc1OCCCOc1ccccc1Br

**A:**
["20 µM (inconclusive)", "15.8 µM (inconclusive)", "12.6 µM (inconclusive)", "3.16 µM (inconclusive)", "31.6 µM (inconclusive)", "39.8 µM (inconclusive)"]

----------
# experimental-target: Alkaline phosphatase, tissue-nonspecific isozyme (Homo sapiens)
# experimental-details: human TNAP enzyme inhibitors, SAR follow-up, biochemical, luminescent, dose response (AID 1056)
The source made the active and inactive calls.
Exercise: for every item that follows, state its recorded IC50.

CCOc1cc(C)c(C)cc1S(=O)(=O)Nc1cccnc1 : 1.7 µM (active)

Lab note: each molecule below needs its IC50 filled in.
1. O=S(=O)(Nc1cccnc1)c1ccc(Br)cc1OC(F)(F)F
2. Cc1cc(C(=O)NCc2ccc(O)c(O)c2)oc1C
3. Cc1ccc(-c2nnc(SCC(=O)c3ccc(O)c(O)c3)n2Cc2ccco2)cc1
4. C=CCn1c(SCC(=O)c2ccc(O)c(O)c2)nnc1-c1ccc(OC)cc1

**A:**
10.9 µM (active)
> 100 µM (inactive)
19.2 µM (active)
> 100 µM (inactive)

**Q:** For the molecule O=C1C2CCCCC2C(=O)N1c1nccs1 (stereo unspecified) , what IC50 is on record?
**A:** > 10 µM (inactive)

----------
# experimental-details: inhibitors of intracellular T. cruzi replication, confirmation, NIH3T3 host cells, beta-gal luminescence (AID 2044);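 note: intracellular parasites grown in NIH/3T3 mouse fibroblasts as host cells; luminescent beta-galactosidase reporter signal from transgenic T. cruzi replicating inside host cells; inhibitors lower the luminescence signal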
# Format: functional, cell-based
Active and inactive are the calls of the source.
Exercise: for every item that follows, state its recorded EC50.

Here is how some compounds turned out for EC50.
Cc1occc1-c1nnc(-c2cc([N+](=O)[O-])cc([N+](=O)[O-])c2)o1 : 277 nM (active)
CC(C)c1csc(CN2CCC(CO)(Cc3ccccc3)CC2)n1 : 891 nM (active)
CN(C)c1ccc(C2SCCN2C(=O)c2ccc([N+](=O)[O-])cc2)cc1 (configuration not stated) : 874 nM (active)
CCCCCCCNC(=O)C1(CC2CC(c3cccc(Br)c3)=NO2)CCN(C(=O)c2ccccc2)CC1 (configuration not stated) : 2620 nM (active)
Cc1ccc(CSCC(=O)N2CCN(c3ccc(F)cc3)CC2)cc1 : 2180 nM (active)

Lab note: each compound below needs its EC50 filled in.
1. CC(C)=CCc1cc2c(=O)c3c(O)c4c(cc3oc2c(O)c1O)OC(C)C4(C)C (configuration not stated)
2. Cc1ccc(NC2CCCN(C(=O)CCc3ccncc3)C2)cc1C (configuration not stated)

**A:**
["2640 nM (active)", "1150 nM (active)"]
